Data credit: patent US5686486A

# target: HIV-1 protease (Human immunodeficiency virus type 1 group M subtype B, UniProt P04585)
# assay-summary: biochemical
# particulars: dose 1.100 uM; read-out: HIV-1 Protease % Inhib
measured-property: inhibition at 1.1 µM (%)
Numbers only, in %.

Look over these answered cases.
1. COCCOCCC1CCCCCc2c1oc(=O)c(C(c1ccccc1)C1CC1)c2O (stereo not drawn) ... 31.9
2. O=c1oc2c(c(O)c1C(c1ccccc1)C1CC1)CCCCC2CCC1OCCO1 (stereo not drawn) ... 29.2

Turning now to a further compound:
QUERY: Item CCCCOc1ccc(S(=O)(=O)Nc2cccc(C(c3c(O)c4c(oc3=O)CCCCCC4)C3CC3)c2)cc1 (stereo not drawn) with HIV-1 protease (Human immunodeficiency virus type 1 group M subtype B, UniProt P04585) - inhibition at 1.1 µM?
RESULT: 10.6
